Tested on: HeLa cells
Assay: Cell cycle assay in HeLa cells
Type: cell-based, human
Conditions: HeLa cells, 150 nM oligomeric compound, 24 hours, relative to untreated control (UTC = 100)
In the oligonucleotide strings, read from the 5' end, every base follows the letter of its sugar. An asterisk marks phosphorothioate; unmarked linkages are phosphodiester. Other units and linkages are bracketed, terminal groups are in braces. A string of capitals states the bases alone. e = 2'-O-(2-methoxyethyl) (MOE); [5mC] = 5-methylcytosine; d = 2'-deoxy (DNA)
Field 'label' (enum: 1.0 / 0.0). Set to 1.0 when % cells aneuploid is strictly under 80%; else 0.0.

Substance	Discrete label
328424 (antisense eA*eG*eG*eA*eA*dG*d[5mC]*dA*d[5mC]*dA*d[5mC]*dA*dT*dT*dA*eT*e[5mC]*eA*e[5mC]*eA) [compound 328424]	1.0
338666 (antisense TCACGTGGAGAGGAGTTAAA; all 2'-MOE, all phosphorothioate, methylation of C not given here) [compound 338666]	0.0
338769 (antisense GCTTCCCAGCGGCCTATAGT; all 2'-MOE, all phosphorothioate, methylation of C not given here) [compound 338769]	0.0
327877 (antisense e[5mC]*eG*e[5mC]*e[5mC]*eA*eA*eT*eA*eT*eT*eT*eA*e[5mC]*eG*eT*eG*e[5mC]*eT*eG*e[5mC]*eT*eA) [compound 327877]	1.0
327956 (antisense e[5mC]*eA*e[5mC]*eA*eG*eT*eT*eG*e[5mC]*e[5mC]*eA*eG*e[5mC]*eT*eG*eA*eG*eA*eT*eT*eA) [compound 327956]	1.0
338678 (antisense CTGGTTGGGTATGAGACAGA; all 2'-MOE, all phosphorothioate, methylation of C not given here) [compound 338678]	0.0
327946 (antisense eA*eG*eG*e[5mC]*eG*eA*eA*eG*eG*eA*eT*eG*eA*e[5mC]*eA*eA*eA*eG*eG*eG*eA*eA) [compound 327946]	1.0
328397 (antisense eT*eT*eG*eA*eT*d[5mC]*d[5mC]*dA*dT*dA*dT*dG*d[5mC]*dA*dA*e[5mC]*eA*eA*eG*eG) [compound 328397]	0.0
338826 (antisense CGGATCCTGTTACCTCACCA; all 2'-MOE, all phosphorothioate, methylation of C not given here) [compound 338826]	0.0
328111 (antisense eT*e[5mC]*e[5mC]*eG*eA*eG*eT*e[5mC]*eG*eG*eA*eG*eG*eA*eG*eG*eA*eG*eG*eA*eA) [compound 328111]	1.0
328119 (antisense eA*eA*eT*eA*eA*e[5mC]*eA*e[5mC]*eA*e[5mC]*eA*eT*e[5mC]*e[5mC]*eA*e[5mC]*eT*eT*eT*eA*eA) [compound 328119]	0.0

###

Below, each entry is listed alongside its reported PPAR gamma mRNA.
System: PPARγ
Assay: PPARγ mRNA expression in adipocytes (real-time PCR)
Format: cell-based, human
Details: differentiating adipocytes transfected with oligomeric compound; Table 75
In the oligonucleotide strings, read from the 5' end, every base follows the letter of its sugar. An asterisk marks phosphorothioate; unmarked linkages are phosphodiester. Other units and linkages are bracketed, terminal groups are in braces. A string of capitals states the bases alone. e = 2'-O-(2-methoxyethyl) (MOE); [5mC] = 5-methylcytosine

Substance	PPAR gamma mRNA
327963 (antisense eA*eA*e[5mC]*e[5mC]*eT*eA*eT*e[5mC]*e[5mC]*eT*eG*eA*eA*eT*eT*eA*e[5mC]*eT*eT*eG*eA*eA) [compound 327963]	91 percentage of untreated control (UTC)
327886 (antisense e[5mC]*eG*e[5mC]*eG*eT*eA*e[5mC]*e[5mC]*eA*eA*eA*eA*eG*eT*eA*eA*eT*eA*eA*eT*eG) [compound 327886]	25 percentage of untreated control (UTC)
328089 (antisense eA*e[5mC]*eT*eG*eT*eA*eG*eG*eA*eA*eT*eA*eT*eG*eT*eT*eT*eG*eA*eT*eA) [compound 328089]	79 percentage of untreated control (UTC)
328117 (antisense eT*e[5mC]*e[5mC]*eA*e[5mC]*eA*eA*eA*eG*e[5mC]*eT*eG*eA*eA*e[5mC]*eA*eT*eG*eT*e[5mC]*eT) [compound 328117]	42 percentage of untreated control (UTC)
328124 (antisense eA*eG*e[5mC]*eA*eG*eG*eT*eG*eA*eA*eG*eG*e[5mC]*eA*e[5mC]*e[5mC]*eT*eG*eG*e[5mC]*eT) [compound 328124]	92 percentage of untreated control (UTC)
327969 (antisense eT*eG*eT*eG*eA*eG*eT*eT*e[5mC]*eT*eA*e[5mC]*e[5mC]*eA*eT*eT*eG*e[5mC]*e[5mC]*eA*eA*eA) [compound 327969]	67 percentage of untreated control (UTC)
327917 (antisense eT*e[5mC]*eA*eA*e[5mC]*eA*eT*e[5mC]*eA*eG*eT*e[5mC]*eT*eG*eA*eT*eA*eA*eG*e[5mC]*eT*eA) [compound 327917]	54 percentage of untreated control (UTC)
327885 (antisense eA*e[5mC]*eT*eA*e[5mC]*e[5mC]*eT*eG*e[5mC]*eA*e[5mC]*eT*eG*eT*eA*eA*eG*e[5mC]*eA*e[5mC]*eT*eT*eT*eG) [compound 327885]	59 percentage of untreated control (UTC)
341791 (antisense GCUUCCAGUCGAGGAUGUUUACA; all 2'-MOE, all phosphorothioate, methylation of C and T or U not given here) [compound 341791]	75 percentage of untreated control (UTC)
340354 (antisense UCAGACCGAGACAAGUGCAAUG; all 2'-MOE, all phosphorothioate, methylation of C and T or U not given here) [compound 340354]	74 percentage of untreated control (UTC)
340348 (antisense CTACCTGCACGAACAGCACTTT; all 2'-MOE, all phosphorothioate, methylation of C not given here) [compound 340348]	78 percentage of untreated control (UTC)
